study system: T1, PDZD2_2, O15018
T1 sequence (O15018 329-429, limits assumed, looked up): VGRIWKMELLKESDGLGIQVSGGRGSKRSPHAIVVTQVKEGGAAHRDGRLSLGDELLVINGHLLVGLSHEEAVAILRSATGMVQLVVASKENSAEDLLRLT
measurement notes: holdup assay
Design: key: below the threshold = too weak to quantify, mostly under pKd 3.1 to 4
run conditions: plain residues with an end cap or a label only (N-terminal biotin on a linker: ado-ado)
A collection of binders and their measured pKd
No unit in the answer, only the number.

Check out these entries, answers already filled in.
TSQESEDTYL [TBC1D10A, Q9BXI6] ... 4.49
HSGYRLNDYV [CLDN14, O95500] ... 4.79
TLPRKRMSSI [GPRC6A, Q5T6X5] ... 4.22

Form: binder = DDEDRLVIEI [ZNF831, Q5JPB2] ; pKd = 3.75

The binder identified as HLRARKSEWV [GJD4, Q96KN9] registered its pKd at 5.81

Documented pKd of EVEEFPETSV [TRPV3, Q8NET8] : 4.99

binder YRLAQESGLV [ABCC6, O95255] , pKd observed: 3.51

Lab book: pKd of SAAKVLTSMC [GHRHR, Q02643] noted as 4.75

get_value(item= SGSLKLMTTV [DACT1, Q9NYF0] , readout=pKd) returns 3.92
